Each recorded value in this set is attributed to patent US7659394B2.

- ASSAYED TARGET: human norepinephrine transporter (Homo sapiens, UniProt P23975)
- Construct: host or cells: HEK-293
- Sequence (P23975 whole entry): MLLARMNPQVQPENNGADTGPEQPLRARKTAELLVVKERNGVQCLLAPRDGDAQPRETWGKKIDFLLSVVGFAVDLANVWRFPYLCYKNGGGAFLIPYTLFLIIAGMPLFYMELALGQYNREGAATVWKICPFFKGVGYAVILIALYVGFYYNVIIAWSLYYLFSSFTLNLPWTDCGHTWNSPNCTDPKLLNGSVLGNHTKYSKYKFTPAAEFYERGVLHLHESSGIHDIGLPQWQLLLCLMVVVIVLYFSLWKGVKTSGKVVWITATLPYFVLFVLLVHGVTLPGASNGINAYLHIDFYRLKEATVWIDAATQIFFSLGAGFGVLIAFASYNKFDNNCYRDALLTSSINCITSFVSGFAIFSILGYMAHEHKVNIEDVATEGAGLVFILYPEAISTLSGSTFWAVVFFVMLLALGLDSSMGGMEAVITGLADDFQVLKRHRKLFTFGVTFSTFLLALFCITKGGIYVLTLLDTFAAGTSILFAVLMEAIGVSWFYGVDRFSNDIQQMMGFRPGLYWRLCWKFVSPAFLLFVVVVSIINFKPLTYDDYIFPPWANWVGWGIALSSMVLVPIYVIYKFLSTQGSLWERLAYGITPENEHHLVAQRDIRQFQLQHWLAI
- TEST: hNET receptor binding ([125I]-RTI-55 radioligand binding)
- CONDITION NOTES: membranes of HEK-293 cells transfected with human norepinephrine transporter, IC50 converted to Ki by Cheng-Prusoff, read-out: hNET (Ki)
READOUT LABEL: pKi
Scale: pKi equals -log10([C]), with [C] in mol/L.

Answered cases to consult:
Query: Need pKi, item Brc1ccccc1O[C@@H](c1ccccc1)[C@@H]1CNCCO1
Reply: 8.80

Query: Need pKi, item CCOc1cccc(F)c1O[C@@H](c1ccccn1)[C@@H]1CNCCO1
Reply: 8.15

Further cases:
Query: Need pKi, item Fc1ccc(O[C@H](c2ccccn2)[C@H]2CNCCO2)c(F)c1
Reply: 5.10

* * *

Parameter: pKi. Scope: all listed entries.
- ASSAYED TARGET: human norepinephrine transporter (Homo sapiens)
- Construct: host or cells: HEK-293
- TEST: hNET receptor binding ([125I]-RTI-55 radioligand binding)
- CONDITION NOTES: membranes of HEK-293 cells transfected with human norepinephrine transporter, IC50 converted to Ki by Cheng-Prusoff, read-out: hNET (Ki)
Scale: pKi equals -log10([C]), with [C] in mol/L.

Query: Need pKi, item CCCc1ncccc1O[C@@H](c1ccccc1)[C@@H]1CNCCO1 [Example 135]
Reply: 7.49

Query: Need pKi, item Fc1cccc(F)c1O[C@@H](c1ccccn1)[C@@H]1CNCCO1 [Example 160]
Reply: 8.22

Query: Need pKi, item Fc1ccc(Oc2ncccc2O[C@@H](c2ccccc2)[C@@H]2CNCCO2)cc1 [Example 116]
Reply: 7.20

Moving on to the next compound.
Query: Need pKi, item Fc1ccc(Cl)c(OC(c2ccccc2)[C@@H]2CNCCO2)c1 (stereo partly drawn) [Example 94]
Reply: 8.10

* * *

- ASSAYED TARGET: human norepinephrine transporter (Homo sapiens)
- Construct: host or cells: HEK-293
- TEST: hNET receptor binding ([125I]-RTI-55 radioligand binding)
- CONDITION NOTES: membranes of HEK-293 cells transfected with human norepinephrine transporter, IC50 converted to Ki by Cheng-Prusoff, read-out: hNET (Ki)
READOUT LABEL: Ki (nM)
Answer in nM, number only, no unit symbol.

Answered cases to consult:
Query: Record lookup: for human norepinephrine transporter (Homo sapiens), what Ki belongs to Cc1coc(C(Oc2ccccc2OC(F)(F)F)[C@@H]2CNCCO2)n1 (stereo partly shown) [Example 174] ?
Reply: 18

Query: Record lookup: for human norepinephrine transporter (Homo sapiens), what Ki belongs to c1ccc([C@H](Oc2ccccc2C2CC2)[C@@H]2CNCCO2)nc1 [Example 154] ?
Reply: 12

Query: Record lookup: for human norepinephrine transporter (Homo sapiens), what Ki belongs to COc1cccc([C@H](Oc2c(F)cccc2Br)[C@@H]2CNCCO2)n1 [Example 185] ?
Reply: 8

Further cases:
Query: Record lookup: for human norepinephrine transporter (Homo sapiens), what Ki belongs to Fc1ccc(-c2ccccc2O[C@@H](c2ccccc2)[C@@H]2CNCCO2)cc1 [Example 81] ?
Reply: 9.6

Query: Record lookup: for human norepinephrine transporter (Homo sapiens), what Ki belongs to C=CCc1ccccc1O[C@@H](c1ccccc1)[C@@H]1CNCCO1 [Example 39] ?
Reply: 3.7

Query: Record lookup: for human norepinephrine transporter (Homo sapiens), what Ki belongs to Fc1ccc(OC(c2ccccn2)[C@H]2CNCCO2)c(F)c1 (stereo partly shown) [Example 87] ?
Reply: 2890

Query: Record lookup: for human norepinephrine transporter (Homo sapiens), what Ki belongs to CCOc1ccccc1OC(c1nccs1)[C@@H]1CNCCO1 (stereo partly shown) [Example 180] ?
Reply: 9

Query: Record lookup: for human norepinephrine transporter (Homo sapiens), what Ki belongs to c1ccc([C@H](Oc2ccccc2CC2CC2)[C@@H]2CNCCO2)cc1 [Example 61] ?
Reply: 68

Query: Record lookup: for human norepinephrine transporter (Homo sapiens), what Ki belongs to FCCCc1ccccc1O[C@@H](c1ccccc1)[C@@H]1CNCCO1 [Example 145] ?
Reply: 45

Query: Record lookup: for human norepinephrine transporter (Homo sapiens), what Ki belongs to CCOc1ccccc1O[C@@H](c1ncccc1C)[C@@H]1CNCCO1 [Example 138] ?
Reply: 1610

Query: Record lookup: for human norepinephrine transporter (Homo sapiens), what Ki belongs to CSc1ccccc1O[C@@H](c1ccccc1)[C@@H]1CNCCO1 [Example 53] ?
Reply: 5.9

Query: Record lookup: for human norepinephrine transporter (Homo sapiens), what Ki belongs to c1ccc([C@H](Oc2cccc3ccccc23)[C@@H]2CNCCO2)cc1 [Example 12] ?
Reply: 6.7
